# assay_method_text: chemical genetic growth profiling, strain panel (AID 1159580);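 further: tested at 20 µM; growth read once vehicle control cultures reached saturation at 30 °C; 1 = growth at the plate median or of vehicle wells; lower values mean less growth of the strain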
# measurement_context: S. cerevisiae deletion strains, growth OD, locus YLR262C, strain YPT6
The campaign covered roughly 5,500 compounds. About 2,000 (36%) were called active. Roughly 18% stayed inconclusive and do not appear here. No stated cut-off is given here; in the data, active means normalized growth mostly below about 0.91 (no sharp cut-off); inconclusive means no clear call, values can overlap the other calls; inactive means mostly above about 0.92. Some of the results follow.
Your response should consist of one outcome taken from 1 (active), 0 (inactive)

[
  {
    "compound": "CNC(C)C(O)c1ccccc1 (stereo unspecified)",
    "assigned_label": 0
  },
  {
    "compound": "CC1(C)C(=O)C=C[C@@]2(C)C1C[C@@H](O)[C@]1(C)C2CC[C@@]2(C)[C@H](c3ccoc3)OC(=O)[C@H]3O[C@]321 (stereo partly specified)",
    "assigned_label": 0
  },
  {
    "compound": "CC(C)(C)NCC(O)c1cc(Cl)c(N)c(Cl)c1 (stereo unspecified)",
    "assigned_label": 0
  },
  {
    "compound": "C[C@@H]([C@H](O)c1ccccc1)N(C)C",
    "assigned_label": 0
  },
  {
    "compound": "Cc1[nH]ccc2c1[nH]c1cc(=O)ccc12",
    "assigned_label": 0
  },
  {
    "compound": "COc1cccc2c(C)cc(=O)[nH]c12",
    "assigned_label": 0
  }
]

// query Could you please tell me the result logged for O=[N+]([O-])c1ccc(Oc2cccc3cccnc23)cc1 in this assay?
// result 1

// query Which outcome was assigned to O=C(Cc1cccs1)NC1C(=O)N2C(C(=O)[O-])=C(C[n+]3ccccc3)CSC12 (stereo unspecified) in this test?
// result 0

// query Would you mind telling me which call this test gave CN(C)c1nc(N)c(C(=O)N=C(N)N)nc1Cl ?
// result 0

// query Hello, I am checking results. What call was entered for O=[N+]([O-])c1ccc(OCCCOc2ccc([N+](=O)[O-])cc2)cc1 ?
// result 0

// query Check the results log: what was the call for CC(=O)O[C@@H]1CC(=O)[C@@]2(C)C(CC(=O)[C@]3(C)C2CC[C@@]2(C)[C@H](c4ccoc4)OC(=O)C4OC423)C1(C)C (stereo partly specified) ?
// result 0

* * *

# assay_method_text: chemical genetic growth profiling, strain panel (AID 1159580);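 further: tested at 20 µM; growth read once vehicle control cultures reached saturation at 30 °C; 1 = growth at the plate median or of vehicle wells; lower values mean less growth of the strain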
# measurement_context: S. cerevisiae deletion strains, growth OD, locus YDR392W, strain spt3
The campaign covered roughly 5,500 compounds. About 2,000 (36%) were called active. Not shown: some 18% with an inconclusive outcome. Cut-off read from the data, not from the text of the source: active = normalized growth mostly below about 0.91 (no sharp cut-off); inconclusive = no clear call, values can overlap the other calls; inactive = mostly above about 0.92. The list shows a part of the results.
Your response should consist of one outcome taken from active, inactive

[
  {
    "molecule": "CCC(=O)c1c(O)cc(O)cc1O",
    "assigned_label": "inactive"
  },
  {
    "molecule": "CCOC(=O)c1c(C)cc(OC)cc1O",
    "assigned_label": "active"
  }
]

// query I'd appreciate the recorded outcome for COc1ccc2c(c1)CCC1C2CCC2(C)C1C[C@@H](O)C2O (some centres not stated) from this test.
// result active

// query Name the outcome recorded for CCOC(=O)c1c(C)cc(O)cc1O in the assay.
// result inactive

// query For COC(=O)c1c(C)cc(O)cc1O , which call appears in the assay record?
// result inactive

// query # fetch the recorded call for C[C@]12CCC3c4ccc(O)cc4CCC3C1C[C@@H](O)[C@@H]2O (some centres not stated) here
// result inactive

// query Tell me the recorded outcome of this test for COc1ccccc1/C=C\C(=O)O .
// result inactive

// query Hi team, can someone confirm the assay call for Cc1cc(OC(=O)c2c(C)cc(O)cc2O)cc(O)c1C(=O)O ?
// result inactive

// query Returns: the outcome recorded for C[C@]12CCC3c4ccc(OS(=O)(=O)O)cc4CCC3C1CC[C@H]2O (some centres not stated) in this assay.
// result inactive

// query Please state the recorded outcome for this molecule: COC(=O)c1c(C)cc(OC)cc1O
// result inactive

// query I'd appreciate the recorded outcome for O=C1[O][Bi][O]c2ccccc21 from this test.
// result inactive

// query For this molecule, state the assay outcome: CO[C@@]1(NC(=O)C(C(=O)O)c2ccc(O)cc2)C(=O)N2C(C(=O)O)=C(CSc3nnnn3C)CO[C@@H]21 (some centres not stated)
// result inactive

* * *

# assay_method_text: chemical genetic growth profiling, strain panel (AID 1159580);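 further: tested at 20 µM; growth read once vehicle control cultures reached saturation at 30 °C; 1 = growth at the plate median or of vehicle wells; lower values mean less growth of the strain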
# measurement_context: S. cerevisiae deletion strains, growth OD, locus YER167W, strain BCK2, hits give low values
Hit rate of the full screen: of about 5,500 compounds, about 2,000 (36%) were called active. About 18% were inconclusive and are not listed. This is one part of the list.
Rule: measured normalized growth below 1 gets criterion met; anything equal to or greater than 1 gets criterion not met.

Solved cases (3 shown):
[
  {
    "compound": "COc1ccc2c3c1OC1C(O)CC=C4C(C2)N(C)CCC431 (centres undefined)",
    "assigned_label": "criterion not met"
  },
  {
    "compound": "COC(=O)[C@@]1(C)CCC[C@]2(C)c3ccc(O)c(C(C)C)c3CCC12 (some centres undefined)",
    "assigned_label": "criterion met"
  },
  {
    "compound": "CC(C)c1c(O)ccc2c1CCC1[C@@](C)(CO)CCC[C@]21C (some centres undefined)",
    "assigned_label": "criterion met"
  }
]

Kindly review the next compound as well.
// query For CC(C)c1c(O)ccc2c1CCC1[C@@](C)(C=O)CCC[C@]21C (some centres undefined) , is the recorded normalized growth below the cut-off of 1?
// result criterion met

* * *

# assay_method_text: chemical genetic growth profiling, strain panel (AID 1159580);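 further: tested at 20 µM; growth read once vehicle control cultures reached saturation at 30 °C; 1 = growth at the plate median or of vehicle wells; lower values mean less growth of the strain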
# measurement_context: S. cerevisiae deletion strains, growth OD, locus YNL183C, strain NPR1, hits give low values
The campaign covered roughly 5,500 compounds. About 2,000 (36%) were called active. Another 18% or so got no clear call; they are omitted. Some of the results follow.
Reported normalized growth values for a set of molecules
Give only the figure.

Some molecules with recorded normalized growth:
[
  {
    "molecule": "CC(NC(=S)N/N=C\\c1ccccc1O)c1ccccc1 (stereo not given)",
    "measured_quantity": "normalized growth",
    "measured_number": 0.896
  },
  {
    "molecule": "CCCC(C)(COC(N)=O)COC(=O)NC(C)C (stereo not given)",
    "measured_quantity": "normalized growth",
    "measured_number": 0.925
  },
  {
    "molecule": "CC(C)(C)NC(=S)N/N=C\\c1ccccc1O",
    "measured_quantity": "normalized growth",
    "measured_number": 0.955
  }
]

// query For the molecule shown here, CCCCNC(=S)N/N=C\c1cc(Cl)cc(Cl)c1O , give the reported normalized growth.
// result 0.318

// query GET /values?readout=normalized growth&item= CC[n+]1c(-c2ccccc2)c2cc(N)ccc2c2ccc(N)cc21
// result 0.878

// query Dear colleague, I am looking for the recorded normalized growth of the following molecule: CC1(C)C(=O)C=C[C@@]2(C)C1CC(=O)[C@]1(C)C2CC[C@@]2(C)[C@H](c3ccoc3)OC(=O)[C@H]3O[C@]321 (stereo not given in full)
// result 0.931

// query What normalized growth value was documented for this molecule, Cc1cc(C2CCCCC2)n(O)c(=O)c1 ?
// result 0.0014

// query # input molecule: COc1c2ccoc2cc2oc(=O)ccc12 ; wanted: its normalized growth
// result 0.858

// query Name the reported normalized growth value associated with the molecule C[C@]12CCC3c4ccc(O)cc4CCC3C1CC[C@@H]2O (stereo not given in full)
// result 0.912

// query For O/N=C(/c1ccc(Cl)cc1)c1cc2ccccc2o1 , what is its reported normalized growth?
// result 0.784

// query Would you kindly share the measured normalized growth for CC(C)c1c(O)ccc2c1CCC1C(C)(C)CCC[C@]21C (stereo not given in full) ?
// result 0.627

// query Requested read-out: normalized growth. Entry: COc1ccc(-c2oc3c(CC=C(C)C)c(O[C@@H]4O[C@H](CO)[C@@H](O)[C@H](O)[C@H]4O)cc(O)c3c(=O)c2O[C@@H]2O[C@@H](C)[C@H](O)[C@@H](O)[C@H]2O)cc1
// result 0.952

// query Query (molecule): C[C@]12C=CC(=O)C=C1CCC1C2[C@@H](O)C[C@@]2(C)C1CC[C@]2(O)C(=O)COP(=O)(O)O (stereo not given in full) ; field requested: normalized growth
// result 0.973

// query Give the measured normalized growth of C[C@@H]1O[C@@H](OC[C@H]2OC(Oc3c(-c4ccc(OCCO)c(OCCO)c4)oc4cc(OCCO)cc(O)c4c3=O)[C@H](O)[C@@H](O)[C@@H]2O)[C@H](O)[C@H](O)[C@H]1O (stereo not given in full) .
// result 0.936

// query # lookup: normalized growth of CN(C)c1ccc2nc3ccc(=[N+](C)C)cc-3sc2c1
// result 0.543

// query Param item = CC1(C)C2CC(=O)[C@]3(C)C(CC[C@@]4(C)[C@H](c5ccoc5)OC(=O)[C@H]5O[C@]543)[C@@]2(C)C(=O)C[C@H]1O (stereo not given in full) ; retrieve measured normalized growth.
// result 0.962

// query Please look up its normalized growth: CCC(=O)O[C@H](CC(=O)O)C[N+](C)(C)C
// result 0.988

// query What does the data say about its normalized growth? Entry: CCCCCc1c2c(cc(O)c1C(=O)O)OC(=O)c1c(cc(OC)cc1C(=O)CCCC)O2
// result 0.937

// query I would be grateful if you could share the reported normalized growth for CCCCCCC(C)OC(=O)COc1ccc(Cl)cc1Cl (stereo not given) .
// result 0.96

// query Param item = CC1(C)C(=O)C=C[C@@]2(C)C1C[C@@H](O)[C@]1(C)C2CC[C@@]2(C)[C@H](c3ccoc3)OC(=O)[C@H]3O[C@]321 (stereo not given in full) ; retrieve measured normalized growth.
// result 0.963
